test system: HEK-293T; assay: Multiplex assay against HEK293T; type: toxicity, cell-based; conditions: human, 24 h, 1 µM, compound concentration 1 uM, number of replicates 2
Mark each entry t if its Population Membrane Permeable-Phenotype (%) sits below 3%, and f for all others.

For orientation, consider the following solved cases.
molecule: COc1cc(N2CCN(C)CC2)ccc1Nc1ncc2c(n1)N(C)c1ccccc1C(=O)N2CC(F)(F)F
category.label: t
--
molecule: CN(C)CCCN1c2ccccc2Sc2ccc(Cl)cc21.Cl [CHLORPROMAZINE HYDROCHLORIDE]
category.label: t
--
molecule: O=S(=O)(c1ccccc1)N(CC(F)(F)F)c1ccc(C(O)(C(F)(F)F)C(F)(F)F)cc1 [T091317]
category.label: f
--
molecule: Cn1c(Nc2c(Cl)cccc2Cl)nc2ccc3nc[nH]c(=O)c3c21
category.label: t
--
molecule: CCc1ncnc(N2CCN(C(C)=O)CC2)c1C#Cc1ccc(N)nc1.Cl.Cl
category.label: t

Prompt: Does the reported Population Membrane Permeable-Phenotype (%) of the following molecule sit strictly below 3%? `CN(C)C/C=C/C(=O)Nc1cc2c(Nc3ccc(F)c(Cl)c3)ncnc2cc1OC[C@@H]1CCCO1`
Response: f

Prompt: Does the reported Population Membrane Permeable-Phenotype (%) of the following molecule sit strictly below 3%? `O=C(Nc1ccc(Cl)c(-c2ccccn2)c1)c1cccc(COc2ccc(Br)cc2CNCCO)c1.O=CO`
Response: f

Prompt: Does the reported Population Membrane Permeable-Phenotype (%) of the following molecule sit strictly below 3%? COc1c(OCCCN2CCOCC2)ccc2c1N=C(NC(=O)c1cnc(N)nc1)N1CCN=C21 [COPANLISIB]
Response: t

----------
system: Fibroblast; assay: Multiplex assay against human fibroblast; format: toxicity, cell-based; conditions: 12 h, 1 µM, compound concentration 1 uM, number of replicates 2
Measured Population Hoechst High Intensity Objects (%) by item
Please state the figure in %; there is no need to write the unit.

compound: CC(=O)N(CCN(C)C)c1ccc(N/C(=C2\C(=O)Nc3cc(Cl)ccc32)c2ccccc2)cn1
assay.result: 0
--
compound: CN(C)CCCN1c2ccccc2Sc2ccc(Cl)cc21.Cl [CHLORPROMAZINE HYDROCHLORIDE]
assay.result: 0
--
compound: Br.Oc1cc2c(cc1O)C(c1ccccc1)CNCC2 (centres undefined)
assay.result: 0
--
compound: CN(C)C/C=C/C(=O)Nc1ccc(C(=O)N2CCCC(Nc3ncc(Cl)c(-c4c[nH]c5ccccc45)n3)C2)cc1 (centres undefined)
assay.result: 0
--
compound: O=C1CCCN1CCNc1nc(Nc2ccc(Cl)c(Cl)c2)ncc1C(F)(F)F
assay.result: 0

Prompt: Fill blank: measured Population Hoechst High Intensity Objects (%) of the compound `Cc1cc(-c2cnc(N)c3c(-c4ccc5scnc5c4)csc23)n(C)n1` is ____.
Response: 0

Prompt: Fill blank: measured Population Hoechst High Intensity Objects (%) of the compound CC(C)(C)c1cnc(CSc2cnc(NC(=O)C3CCN(CC(=O)NCCOCCOCCOCCNc4cccc5c4C(=O)N(C4CCC(=O)NC4=O)C5=O)CC3)s2)o1 (centres undefined) is ____.
Response: 0

Prompt: Fill blank: measured Population Hoechst High Intensity Objects (%) of the compound `COc1c(OCCCN2CCOCC2)ccc2c1N=C(NC(=O)c1cnc(N)nc1)N1CCN=C21` is ____.
Response: 0

Prompt: Fill blank: measured Population Hoechst High Intensity Objects (%) of the compound `COc1cc2nc(-c3cc(F)ccc3O)nc(N[C@@H]3CNC[C@H]3C(C)(C)O)c2cc1OC.Cl.Cl` is ____.
Response: 0

----------
system: U2OS; experiment: Multiplex assay against U2OS; assay type: toxicity, cell-based; conditions: human, 24 h, 1 µM, compound concentration 1 uM, number of replicates 2
result.type: Population Mitochondria Different-Phenotype (%)
Please state the figure in %; there is no need to write the unit.

A selection of reference data follows.
compound: CC(C)(C)c1cnc(CSc2cnc(NC(=O)C3CCN(CC(=O)NCCOCCOCCOCCNc4cccc5c4C(=O)N(C4CCC(=O)NC4=O)C5=O)CC3)s2)o1 (centres undefined)
unit.abbreviation: %
assay.result: 1

compound: CCC(=O)O[C@@H](OP(=O)(CCCCc1ccccc1)CC(=O)N1C[C@H](C2CCCCC2)C[C@H]1C(=O)[O-])C(C)C.[Na+] (some centres undefined)
unit.abbreviation: %
assay.result: 0

compound: O=C1CCCN1CCNc1nc(Nc2ccc(Cl)c(Cl)c2)ncc1C(F)(F)F
unit.abbreviation: %
assay.result: 0

Shift focus to the following entry.
Prompt: API: value(readout= Population Mitochondria Different-Phenotype (%), system= U2OS, query= `Cc1cc(-c2cnc(N)c3c(-c4ccc5scnc5c4)csc23)n(C)n1` )
Response: 0

----------
test system: Fibroblast; assay: Multiplex assay against human fibroblast; type: toxicity, cell-based; details: 24 h, 1 µM, compound concentration 1 uM, number of replicates 2
result.type: Population Normal (%)
Please state the figure in %; there is no need to write the unit.

A selection of reference data follows.
compound: COC(=O)c1ccc2c(c1)NC(=O)/C2=C(\Nc1ccc(-c2nccn2C)cc1)c1ccccc1
result.type: Population Normal (%)
unit.abbreviation: %
assay.result: 99
//
compound: Cn1cc(-c2ccc(N(C(=O)NCc3ccccc3)[C@H]3CC[C@H](Nc4ccc(C#N)cn4)CC3)cc2)ccc1=O
result.type: Population Normal (%)
unit.abbreviation: %
assay.result: 99
//
compound: CN(C)C/C=C/C(=O)Nc1ccc(C(=O)N2CCCC(Nc3ncc(Cl)c(-c4c[nH]c5ccccc45)n3)C2)cc1 (stereo unspecified)
result.type: Population Normal (%)
unit.abbreviation: %
assay.result: 100
//
compound: CC(=O)N(CCN(C)C)c1ccc(N/C(=C2\C(=O)Nc3cc(Cl)ccc32)c2ccccc2)cn1
result.type: Population Normal (%)
unit.abbreviation: %
assay.result: 99
//
compound: CN(C)CCCN1c2ccccc2Sc2ccc(Cl)cc21.Cl [CHLORPROMAZINE HYDROCHLORIDE]
result.type: Population Normal (%)
unit.abbreviation: %
assay.result: 100

Prompt: Fill blank: measured Population Normal (%) of the compound `COc1c(OCCCN2CCOCC2)ccc2c1N=C(NC(=O)c1cnc(N)nc1)N1CCN=C21` is ____.
Response: 100

----------
system: HEK-293T; assay: Multiplex assay against HEK293T; type: toxicity, cell-based; conditions: human, 24 h, 10 µM, compound concentration 10 uM, number of replicates 2
result.type: Population Pyknosed Nuclei (%)
Please state the figure in %; there is no need to write the unit.

Prompt: Fill blank: measured Population Pyknosed Nuclei (%) of the molecule `Cc1cc(-c2cnc(N)c3c(-c4ccc5scnc5c4)csc23)n(C)n1` is ____.
Response: 14

Prompt: Fill blank: measured Population Pyknosed Nuclei (%) of the molecule `CCc1ncnc(N2CCN(C(C)=O)CC2)c1C#Cc1ccc(N)nc1.Cl.Cl` is ____.
Response: 18

Prompt: Fill blank: measured Population Pyknosed Nuclei (%) of the molecule CN(C)C/C=C/C(=O)Nc1ccc(C(=O)N2CCCC(Nc3ncc(Cl)c(-c4c[nH]c5ccccc45)n3)C2)cc1 (centres undefined) is ____.
Response: 17

Prompt: Fill blank: measured Population Pyknosed Nuclei (%) of the molecule `COc1cc2nc(-c3cc(F)ccc3O)nc(N[C@@H]3CNC[C@H]3C(C)(C)O)c2cc1OC.Cl.Cl` is ____.
Response: 45

----------
system: HEK-293T; assay: Multiplex assay against HEK293T; type: toxicity, cell-based; conditions: human, 24 h, 1 µM, compound concentration 1 uM, number of replicates 2
result.type: Population Membrane Permeable-Phenotype (%)
Please state the figure in %; there is no need to write the unit.

A selection of reference data follows.
compound: CCC(=O)O[C@@H](OP(=O)(CCCCc1ccccc1)CC(=O)N1C[C@H](C2CCCCC2)C[C@H]1C(=O)[O-])C(C)C.[Na+] (stereo partly drawn)
experimental.target: HEK-293T
unit.abbreviation: %
assay.result: 3

compound: COc1cc2nc(-c3cc(F)ccc3O)nc(N[C@@H]3CNC[C@H]3C(C)(C)O)c2cc1OC.Cl.Cl
experimental.target: HEK-293T
unit.abbreviation: %
assay.result: 3

Prompt: Fill blank: measured Population Membrane Permeable-Phenotype (%) of the compound `CN1CCN(C(=O)Cc2ccc(N/C(=C3\C(=O)Nc4cc(Cl)ccc43)c3ccccc3)cc2)CC1` is ____.
Response: 3
